# SYSTEM_TESTED: human recombinant 5-HT2C receptor (Homo sapiens (Human), UniProt P28335)
# Sequence (P28335 33-458): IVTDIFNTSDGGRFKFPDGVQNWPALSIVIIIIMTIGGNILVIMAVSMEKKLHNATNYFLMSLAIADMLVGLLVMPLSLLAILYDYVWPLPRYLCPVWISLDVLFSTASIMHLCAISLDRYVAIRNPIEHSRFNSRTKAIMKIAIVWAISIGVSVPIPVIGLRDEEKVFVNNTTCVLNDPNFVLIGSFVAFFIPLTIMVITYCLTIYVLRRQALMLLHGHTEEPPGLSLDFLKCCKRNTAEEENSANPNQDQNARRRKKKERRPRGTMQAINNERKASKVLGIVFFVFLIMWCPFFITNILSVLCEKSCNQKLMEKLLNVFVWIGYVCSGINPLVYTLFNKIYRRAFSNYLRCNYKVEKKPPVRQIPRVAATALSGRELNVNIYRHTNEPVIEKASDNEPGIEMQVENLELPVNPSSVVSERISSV
# EXPERIMENT_DESCRIPTION: 5-HT2C receptor binding inhibition test ([3H]-Mesulergine)
# COND: Jump-In HEK cell membrane, 37° C. 2 hours, read-out: h-5-HT2C Ki
pKi: −log10 of the molar value.
PARAMETER: pKi

CCCOc1ccc(CC2=NOC3(CCN(C)CC34CC4)N2Cc2ccn(C)n2)cc1 (single isomer, unassigned) [Compound I-045]
6.30 to 7.00
Cc1cc(CN(Cc2ccc(OCC(C)C)cc2)C2=NC(=O)C3(CCN(C)CC3)N2)nn1C
6.30 to 7.00
CC(C)COc1ccc(CN(Cc2ccc(F)cc2)C2=NOC3(CCN(C)CC3)N2)cc1 [Compound I-060]
7.00 to 8.00
CN1CCC2(CC1)NC(N(Cc1ccc(OCC(F)(F)F)cc1)Cc1coc(CF)n1)=NO2
> 8.00
CCCOc1ccc(CN(Cc2coc(C)n2)C2=NOC3(CCNCC3)N2)c(Cl)c1
> 8.00
CCCOc1ccc(CC2=NOC3(CCNCC34CC4)N2Cc2ccn(C)n2)cc1 (racemic)
> 8.00
Cc1nc(CN(Cc2ccc(OCC3CCC3)cc2)C2=NOC3(CCN(C)CC3)N2)co1
> 8.00
Cc1nc(CN(Cc2ccc(OCC(C)(F)F)cc2)C2=NOC3(CCN(C)CC3)N2)co1
> 8.00
Cc1cnc(CN(Cc2ccc(OCC(C)C)cc2)C2=NC(=O)C3(CCN(C)CC3)N2)nc1
7.00 to 8.00
CCCCc1ccc(CN(Cc2cnn(C)n2)C2=NOC3(CCN(C)CC3)N2)cc1
> 8.00

For each listed entry, give its pKi.
1. CN1CCC2(ON=C(Cc3ccc(OC4CC4)cc3)N2Cc2ccn(C)n2)C2(CC2)C1 (racemic)
2. Cc1cc(CN2C(Cc3ccc(OC(F)F)cc3)=NOC23CCN(C)CC32CC2)nn1C (racemic)
3. Cc1nc(CN(Cc2ccc(OCC(C)C)c(F)c2)C2=NOC3(CCN(C)CC3)N2)co1

Result:
> 8.00
> 8.00
> 8.00

For each listed entry, give its pKi.
1. Cc1nc(CN(Cc2cn3ccccc3n2)C2=NOC3(CCN(C)CC3)N2)co1
2. Cc1ccc(CN(Cc2ccc(OCC(C)C)cc2)C2=NOC3(CCN(C)CC3)N2)nc1
3. CCCOc1ccc(CC2=NOC3(CCN(C)CC3)N2Cc2ccn(C)n2)cc1
4. Cc1nc(CN(Cc2ccc(OCC(F)(F)C(F)(F)F)cc2)C2=NOC3(CCN(C)CC3)N2)co1
5. Cc1nc(CN(Cc2ccc(OCC(C)C)cc2)C2=NOC3(CCN(C)CC3)N2)cs1
6. Cc1nc(CN(Cc2ccc(OCC(C)C)cc2)C2=NO[C@@]3(CCNC[C@H]3F)N2)co1 (racemic)

Result:
1. 6.30 to 7.00
2. > 8.00
3. 7.00 to 8.00
4. > 8.00
5. > 8.00
6. > 8.00

---

Exercise: state measured pKi for each of the molecules provided.
# SYSTEM_TESTED: human recombinant 5-HT2A receptor (Homo sapiens (Human), UniProt P28223)
# Sequence (P28223 whole entry): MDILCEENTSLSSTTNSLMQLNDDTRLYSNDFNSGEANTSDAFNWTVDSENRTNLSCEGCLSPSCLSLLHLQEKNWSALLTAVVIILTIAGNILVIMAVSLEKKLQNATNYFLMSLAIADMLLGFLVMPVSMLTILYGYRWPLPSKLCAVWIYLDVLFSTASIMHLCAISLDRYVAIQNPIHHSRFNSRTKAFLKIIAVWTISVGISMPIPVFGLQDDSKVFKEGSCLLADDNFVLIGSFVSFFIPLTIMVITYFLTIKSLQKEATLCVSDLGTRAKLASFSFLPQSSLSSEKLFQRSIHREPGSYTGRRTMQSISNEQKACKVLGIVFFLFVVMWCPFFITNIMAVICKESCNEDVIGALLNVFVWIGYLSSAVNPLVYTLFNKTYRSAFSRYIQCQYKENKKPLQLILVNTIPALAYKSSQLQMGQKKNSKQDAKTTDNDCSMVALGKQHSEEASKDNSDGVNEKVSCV
# EXPERIMENT_DESCRIPTION: 5-HT2A receptor binding inhibition test ([3H]-Ketanserin)
# COND: Jump-In HEK cell membrane, 25° C. 1.5 hours, read-out: h-5-HT2A Ki
pKi: −log10 of the molar value.

A selection of reference data follows.
CCCOc1ccc(CN(Cc2coc(C)n2)C2=NOC3(CCN(C)CC3)N2)cc1
> 8.00
CC(C)COc1ccc(CN(Cc2coc(CF)n2)C2=NOC3(CCN(C)CC3)N2)cc1
> 8.00
CC(C)COc1ccc(CN(Cc2ccc(F)cn2)C2=NC(=O)C3(CCN(C)CC3)N2)cc1
> 8.00

For each listed entry, give its pKi.
1. CC(C)COc1ccc(CN(Cc2ccn(C3CC3)n2)C2=NOC3(CCN(C)CC3)N2)cc1
2. Cc1nc(CN(Cc2ccc(OCC(C)C)cc2)C2=NC3(CCNCC3)ON2C)co1
3. Cc1cc(CN2C(Cc3ccc(OC(F)F)cc3)=NOC23CCN(C)CC32CC2)nn1C (racemic)
4. CC(C)COc1ccc(CN(Cc2cn(C)cn2)C2=NOC3(CCN(C)CC3)N2)cc1

Result:
1. > 8.00
2. 6.30 to 7.00
3. > 8.00
4. > 8.00

For each listed entry, give its pKi.
1. CCCOc1ccc(CC2=NOC3(CCN(C)CC3)N2Cc2ccn(C)n2)cc1
2. Cc1ccc(CN(Cc2ccc(OCC(C)C)cc2)C2=NOC3(CCN(C)CC3)N2)cn1

Result:
1. 7.00 to 8.00
2. > 8.00
